The origin of these recorded values is patent US10670605B2.

I'd appreciate it if you could supply isoTOP-ABPP ratio (reactivity profile), O14980_C34 values for the items below.
target: UniProtKB O14980; test: Competitive isoTOP-ABPP, cell lysates; format: binding; details: 500 μm in-vitro ramos_231
Sequence (O14980 whole entry): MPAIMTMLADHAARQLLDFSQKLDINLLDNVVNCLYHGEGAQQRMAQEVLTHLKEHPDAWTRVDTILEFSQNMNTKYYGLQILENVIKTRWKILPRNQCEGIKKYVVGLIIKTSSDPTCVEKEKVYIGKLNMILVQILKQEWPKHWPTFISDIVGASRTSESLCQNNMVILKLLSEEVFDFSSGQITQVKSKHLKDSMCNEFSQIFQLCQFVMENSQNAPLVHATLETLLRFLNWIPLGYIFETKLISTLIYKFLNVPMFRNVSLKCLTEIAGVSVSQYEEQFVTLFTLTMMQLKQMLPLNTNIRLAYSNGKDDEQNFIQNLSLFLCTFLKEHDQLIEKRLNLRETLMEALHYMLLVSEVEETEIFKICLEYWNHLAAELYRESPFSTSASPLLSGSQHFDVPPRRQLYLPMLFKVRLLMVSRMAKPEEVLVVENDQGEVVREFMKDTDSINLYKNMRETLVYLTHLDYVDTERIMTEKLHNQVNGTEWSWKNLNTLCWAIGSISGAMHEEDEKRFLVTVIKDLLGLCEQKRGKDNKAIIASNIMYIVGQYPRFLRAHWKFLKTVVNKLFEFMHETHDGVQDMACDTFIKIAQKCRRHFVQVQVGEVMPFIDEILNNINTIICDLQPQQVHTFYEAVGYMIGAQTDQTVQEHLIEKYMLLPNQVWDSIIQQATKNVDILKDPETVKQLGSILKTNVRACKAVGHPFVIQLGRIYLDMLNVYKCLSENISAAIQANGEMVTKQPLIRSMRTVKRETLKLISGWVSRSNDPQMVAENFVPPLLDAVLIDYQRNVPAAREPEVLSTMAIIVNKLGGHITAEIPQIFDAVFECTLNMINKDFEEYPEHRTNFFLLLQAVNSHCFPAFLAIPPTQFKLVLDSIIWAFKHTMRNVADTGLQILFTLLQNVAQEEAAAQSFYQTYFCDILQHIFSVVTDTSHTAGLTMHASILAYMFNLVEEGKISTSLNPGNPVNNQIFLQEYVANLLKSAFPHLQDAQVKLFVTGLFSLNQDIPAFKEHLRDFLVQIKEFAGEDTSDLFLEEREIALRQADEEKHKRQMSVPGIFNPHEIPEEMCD
Numbers only.

N#C/C(=C\c1cc(C(F)(F)F)cc(C(F)(F)F)c1)C(N)=O [compound 23] = 3.4
COc1ccccc1OCCNC(=O)CCl [compound 28] = 0.8
CC(Cl)C(=O)Nc1cc(C(F)(F)F)cc(C(F)(F)F)c1 (stereo not shown) [compound 25] = 0.9
O=C(CCl)N1CCC(C(O)(c2ccccc2)c2ccccc2)CC1 [compound 20] = 1.0
O=C(CCl)NC12CC3CC(CC(C3)C1)C2 [compound 21] = 0.9

Hi there! I need isoTOP-ABPP ratio (reactivity profile), O14980_C34 for each item below, if you can.
1. O=C(CCl)N1CCOCC1 [compound 22]
2. O=C(CCl)N1CCN(CC(=O)N2CCOCC2)CC1 [compound 29]

A:
1.1
1.3

###

Would you mind telling me the reported isoTOP-ABPP ratio, P63244_C182 of each entry?
target: GNB2L1 C182 (P63244) (Homo sapiens, UniProt P63244); assay: Competitive isoTOP-ABPP, cell lysates; assay type: binding; conditions: 500 μM, invitro, 231
Numbers only.

O=C(CCl)NCCc1c[nH]c2ccccc12 = 1.4
Cn1cc(S(=O)(=O)N2CCOCC2)cc1C(=O)NC(=O)CCl = 1.0
C=CC(=O)N(c1ccccc1)c1ccc(Br)cc1 = 1.5
CNS(=O)(=O)C=Cc1ccc2c(ccn2Cc2ccccc2)c1 = 1.5
O=C(CCl)N1CCN(S(=O)(=O)c2ccccc2F)CC1 = 1.1

Now turn to the next compound.
Bench note, GNB2L1 C182 (P63244) (Homo sapiens, UniProt P63244): entry O=C(CCl)NC(=O)NC12CC3CC(CC(C3)C1)C2 , its isoTOP-ABPP ratio, P63244_C182 = 0.9

###

target: cysteines in MDA-MB-231 and Ramos cells (Homo sapiens, UniProt P04406); assay: Competitive isoTOP-ABPP in situ (fragment-treated cells); format: cell-based; details: 200 μM, insitu, ramos
Sequence (P04406 whole entry, the tested form may be a part): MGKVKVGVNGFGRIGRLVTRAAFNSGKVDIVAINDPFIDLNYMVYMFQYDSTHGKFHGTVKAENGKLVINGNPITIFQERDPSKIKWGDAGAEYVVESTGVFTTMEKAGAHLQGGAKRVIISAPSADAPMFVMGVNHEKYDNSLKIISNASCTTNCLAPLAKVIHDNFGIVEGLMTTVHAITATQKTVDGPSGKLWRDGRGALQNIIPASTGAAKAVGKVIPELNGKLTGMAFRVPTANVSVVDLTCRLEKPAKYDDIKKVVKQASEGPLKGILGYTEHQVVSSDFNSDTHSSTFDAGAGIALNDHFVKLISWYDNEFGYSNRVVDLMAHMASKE
experimental endpoint: isoTOP-ABPP ratio P04406_C152

C=CC(=O)N(Cc1cccnc1)c1cc(C(F)(F)F)cc(C(F)(F)F)c1 = 1.0
O=C(CCl)NCCc1c[nH]c2ccccc12 = 0.9
O=C(CCl)N1CCN(CC(=O)N2CCOCC2)CC1 = 1.2

As a next step, examine the molecule that follows.
isoTOP-ABPP ratio P04406_C152 in this record for O=C(CCl)N1CCN(S(=O)(=O)c2ccccc2F)CC1 : 0.9

###

Would you mind telling me the reported isoTOP-ABPP ratio, cysteine P23919_C117 of each entry?
Target: cysteines in MDA-MB-231 and Ramos cells (Homo sapiens, UniProt P23919)
Sequence (P23919 1-212): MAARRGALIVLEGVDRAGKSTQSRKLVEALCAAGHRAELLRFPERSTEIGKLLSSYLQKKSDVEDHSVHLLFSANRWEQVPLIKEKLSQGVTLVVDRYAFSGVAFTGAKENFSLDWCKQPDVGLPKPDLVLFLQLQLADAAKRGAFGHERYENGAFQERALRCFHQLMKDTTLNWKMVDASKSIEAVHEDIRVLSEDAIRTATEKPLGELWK
Test: Competitive isoTOP-ABPP in situ (fragment-treated cells)
Type: cell-based
Conditions: 200 μM, insitu, 231
One number for each entry.

O=C(CCl)NC12CC3CC(CC(C3)C1)C2 = 0.9

Working through the 3 compounds below one at a time, give isoTOP-ABPP ratio, cysteine P23919_C117 for each.
1. O=C(CCl)NC(=O)NC12CC3CC(CC(C3)C1)C2
2. O=C(CCl)NCCc1c[nH]c2ccccc12
3. O=C(CCl)N1CCN(S(=O)(=O)c2ccccc2F)CC1

A:
[0.2, 0.6, 0.4]

###

molecular target: DCUN1D1 C115 (Q96GG9) (Homo sapiens, UniProt Q96GG9); assay: Competitive isoTOP-ABPP, cell lysates; format: binding; details: 500 μm, in-vitro_ramos
Sequence (Q96GG9 whole entry): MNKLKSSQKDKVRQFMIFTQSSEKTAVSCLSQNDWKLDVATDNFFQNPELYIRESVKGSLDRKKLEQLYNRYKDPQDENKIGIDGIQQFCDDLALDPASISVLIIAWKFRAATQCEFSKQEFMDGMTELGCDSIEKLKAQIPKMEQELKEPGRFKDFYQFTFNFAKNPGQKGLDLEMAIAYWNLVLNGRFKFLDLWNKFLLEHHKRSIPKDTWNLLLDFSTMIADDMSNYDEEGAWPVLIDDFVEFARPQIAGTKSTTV
experimental endpoint: isoTOP-ABPP reactivity profile ratio, Q96GG9_C115

Sample answers from the record:
N#CC(=Cc1ccc(-c2ccccc2Cl)o1)C(N)=O [compound 42] = 0.9
O=C(CCl)Nc1cccc2ncccc12 [compound 51] = 0.8
O=C(CCl)Nc1ccc(-c2ccccc2)cc1 [compound 52] = 1.0

Form: compound = C=CC(=O)N1CCC(Cc2ccccc2)CC1 [compound 53] ; isoTOP-ABPP reactivity profile ratio, Q96GG9_C115 = 0.9

###

molecular target: cysteines in MDA-MB-231 and Ramos cells (Homo sapiens, UniProt P24752); assay: Competitive isoTOP-ABPP in situ (fragment-treated cells); assay type: cell-based; conditions: 200 μM, insitu, 231
Assign labels as follows, please: 1 for isoTOP-ABPP ratio, P24752_C126 below 1; -1 for isoTOP-ABPP ratio, P24752_C126 equal to or exceeding 1.

Known results for molecules:
O=C(CCl)N1CCN(S(=O)(=O)c2ccccc2F)CC1 = -1
C=CC(=O)N(Cc1cccnc1)c1cc(C(F)(F)F)cc(C(F)(F)F)c1 = 1
COc1ccccc1OCCNC(=O)CCl = -1
Cc1ccc(C=C(C#N)C(=O)NCCN2CCOCC2)cc1 = 1
O=C(CCl)NC12CC3CC(CC(C3)C1)C2 = -1

Next molecule, please.
Q: Threshold test, isoTOP-ABPP ratio, P24752_C126 < 1: O=C(CCl)NC(=O)NC12CC3CC(CC(C3)C1)C2
A: -1

###

Field: isoTOP-ABPP ratio Q8WWI1_C228. Provide a value for each of the compounds that follow.
biological target: cysteines in MDA-MB-231 and Ramos cells (Homo sapiens, UniProt Q8WWI1); assay: Competitive isoTOP-ABPP in situ (fragment-treated cells); assay type: cell-based; conditions: 200 μM, insitu, 231
Sequence (Q8WWI1 whole entry, the tested form may be a part): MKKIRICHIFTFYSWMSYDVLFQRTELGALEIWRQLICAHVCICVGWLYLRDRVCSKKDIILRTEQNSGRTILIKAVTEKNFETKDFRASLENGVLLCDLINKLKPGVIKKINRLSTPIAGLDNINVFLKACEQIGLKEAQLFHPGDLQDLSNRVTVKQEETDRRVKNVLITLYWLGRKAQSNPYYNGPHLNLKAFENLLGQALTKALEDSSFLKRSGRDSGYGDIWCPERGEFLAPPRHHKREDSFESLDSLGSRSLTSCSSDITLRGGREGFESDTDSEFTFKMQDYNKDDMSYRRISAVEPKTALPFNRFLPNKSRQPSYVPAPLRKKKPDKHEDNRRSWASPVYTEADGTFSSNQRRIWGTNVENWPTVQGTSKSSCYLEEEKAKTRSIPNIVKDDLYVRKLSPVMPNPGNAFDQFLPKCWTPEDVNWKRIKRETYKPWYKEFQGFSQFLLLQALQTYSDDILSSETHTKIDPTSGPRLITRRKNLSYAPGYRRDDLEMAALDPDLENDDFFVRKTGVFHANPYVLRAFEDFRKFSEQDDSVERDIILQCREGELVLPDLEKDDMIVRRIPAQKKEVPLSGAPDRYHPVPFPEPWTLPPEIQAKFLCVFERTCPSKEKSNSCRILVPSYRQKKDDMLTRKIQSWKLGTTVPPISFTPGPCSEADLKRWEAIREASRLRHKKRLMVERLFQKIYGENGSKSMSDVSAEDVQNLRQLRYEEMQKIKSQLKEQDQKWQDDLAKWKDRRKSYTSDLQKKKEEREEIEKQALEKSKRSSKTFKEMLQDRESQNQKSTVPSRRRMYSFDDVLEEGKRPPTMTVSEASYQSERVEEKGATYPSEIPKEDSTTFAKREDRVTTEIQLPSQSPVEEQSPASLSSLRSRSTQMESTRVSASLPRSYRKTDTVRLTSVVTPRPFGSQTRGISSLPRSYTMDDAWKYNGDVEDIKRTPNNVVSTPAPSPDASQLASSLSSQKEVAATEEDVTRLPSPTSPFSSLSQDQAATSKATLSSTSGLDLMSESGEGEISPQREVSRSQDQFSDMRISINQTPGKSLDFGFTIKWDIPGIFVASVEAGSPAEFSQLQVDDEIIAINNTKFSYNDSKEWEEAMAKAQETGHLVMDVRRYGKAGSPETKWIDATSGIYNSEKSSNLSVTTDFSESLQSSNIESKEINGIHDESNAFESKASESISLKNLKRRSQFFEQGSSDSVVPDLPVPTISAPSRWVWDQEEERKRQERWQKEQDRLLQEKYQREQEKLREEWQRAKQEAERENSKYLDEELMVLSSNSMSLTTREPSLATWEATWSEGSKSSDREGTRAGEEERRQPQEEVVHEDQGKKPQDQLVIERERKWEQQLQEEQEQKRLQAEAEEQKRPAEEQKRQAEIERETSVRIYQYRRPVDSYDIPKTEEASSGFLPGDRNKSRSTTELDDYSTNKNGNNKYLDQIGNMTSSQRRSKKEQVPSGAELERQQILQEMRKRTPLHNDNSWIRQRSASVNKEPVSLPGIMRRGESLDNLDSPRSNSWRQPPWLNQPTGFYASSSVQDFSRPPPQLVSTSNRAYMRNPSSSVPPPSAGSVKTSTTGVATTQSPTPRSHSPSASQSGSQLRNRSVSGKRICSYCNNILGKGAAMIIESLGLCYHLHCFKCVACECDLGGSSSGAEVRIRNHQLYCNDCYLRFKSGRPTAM
Answers are plain numbers.

Batch request: isoTOP-ABPP ratio Q8WWI1_C228 per item, same order as input.
1. CC1CCc2ccccc2N1C(=O)CCl (stereo not shown)
2. O=C(CCl)NCCc1c[nH]c2ccccc12
3. Cc1ccc(C=C(C#N)C(=O)NCCN2CCOCC2)cc1
4. O=C(CCl)NC12CC3CC(CC(C3)C1)C2
5. CC(C)CCOCCNC(=O)CCl
6. O=C(CCl)N1CCN(S(=O)(=O)c2ccccc2F)CC1

A:
20.0
2.0
0.8
1.1
0.8
17.2

The compound identified as O=C(CCl)NC(=O)NC12CC3CC(CC(C3)C1)C2 registered its isoTOP-ABPP ratio Q8WWI1_C228 at 20.0

###

For each of the compounds below, state its isoTOP-ABPP ratio O60610_C1227.
biological target: cysteines in MDA-MB-231 and Ramos cells (Homo sapiens, UniProt O60610); assay: Competitive isoTOP-ABPP in situ (fragment-treated cells); format: cell-based; settings: 200 μM, insitu, 231
Sequence (O60610 whole entry, the tested form may be a part): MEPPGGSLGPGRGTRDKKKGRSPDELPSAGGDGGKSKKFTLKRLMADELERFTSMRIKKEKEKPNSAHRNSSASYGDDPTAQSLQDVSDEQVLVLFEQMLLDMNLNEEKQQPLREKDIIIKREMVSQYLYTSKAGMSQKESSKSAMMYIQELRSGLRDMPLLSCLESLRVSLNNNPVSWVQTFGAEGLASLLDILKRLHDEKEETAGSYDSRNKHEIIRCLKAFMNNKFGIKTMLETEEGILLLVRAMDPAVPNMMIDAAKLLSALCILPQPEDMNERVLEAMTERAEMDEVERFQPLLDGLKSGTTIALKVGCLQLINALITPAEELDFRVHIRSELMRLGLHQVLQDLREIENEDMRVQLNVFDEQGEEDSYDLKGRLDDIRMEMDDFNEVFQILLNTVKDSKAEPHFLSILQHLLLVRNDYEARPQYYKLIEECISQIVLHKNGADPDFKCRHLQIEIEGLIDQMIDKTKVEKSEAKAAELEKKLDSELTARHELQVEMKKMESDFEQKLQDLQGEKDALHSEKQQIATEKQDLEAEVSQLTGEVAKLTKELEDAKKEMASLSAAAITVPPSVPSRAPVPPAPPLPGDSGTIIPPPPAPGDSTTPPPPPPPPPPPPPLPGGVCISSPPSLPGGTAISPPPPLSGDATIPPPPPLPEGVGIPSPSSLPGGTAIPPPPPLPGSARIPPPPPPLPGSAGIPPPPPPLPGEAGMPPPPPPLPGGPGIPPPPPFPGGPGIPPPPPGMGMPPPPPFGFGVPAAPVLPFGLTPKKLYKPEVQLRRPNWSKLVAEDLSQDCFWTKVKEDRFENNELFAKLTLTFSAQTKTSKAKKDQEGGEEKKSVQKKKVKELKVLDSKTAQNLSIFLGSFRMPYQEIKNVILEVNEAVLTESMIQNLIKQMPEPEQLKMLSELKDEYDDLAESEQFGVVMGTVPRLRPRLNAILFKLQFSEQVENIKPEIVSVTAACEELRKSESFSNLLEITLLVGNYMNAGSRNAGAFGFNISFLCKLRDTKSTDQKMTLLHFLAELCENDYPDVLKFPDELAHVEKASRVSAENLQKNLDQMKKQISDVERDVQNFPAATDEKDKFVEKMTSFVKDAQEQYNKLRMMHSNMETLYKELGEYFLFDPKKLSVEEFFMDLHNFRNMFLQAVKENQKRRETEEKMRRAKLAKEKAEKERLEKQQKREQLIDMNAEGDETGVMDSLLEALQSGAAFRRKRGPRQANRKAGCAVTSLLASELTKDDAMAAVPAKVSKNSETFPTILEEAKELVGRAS
Numbers only.

Use these answered entries as a reference point.
Cc1ccc(C=C(C#N)C(=O)NCCN2CCOCC2)cc1 [compound 41] = 0.6
C=CC(=O)Nc1cc(F)c(N2CCN(C(=O)OC(C)(C)C)CC2)c(F)c1 [compound 38] = 0.3
O=C(CCl)NCCc1c[nH]c2ccccc12 [compound 13] = 0.7
C=CC(=O)N(Cc1cccnc1)c1cc(C(F)(F)F)cc(C(F)(F)F)c1 [compound 31] = 0.6
O=C(CCl)NC(=O)NC12CC3CC(CC(C3)C1)C2 [compound 12] = 0.8

Answer for every listed entry: what is its isoTOP-ABPP ratio O60610_C1227? The entries follow.
1. O=C(CCl)NC12CC3CC(CC(C3)C1)C2 [compound 21]
2. O=C(CCl)N1CCN(S(=O)(=O)c2ccccc2F)CC1 [compound 10]
3. CC1CCc2ccccc2N1C(=O)CCl (stereo not drawn) [compound 45]
4. CC(C)CCOCCNC(=O)CCl [compound 27]

A:
20.0
1.5
3.0
0.5

###

Target: ACAT1 C119 (P24752) (Homo sapiens, UniProt P24752)
Sequence (P24752 34-427): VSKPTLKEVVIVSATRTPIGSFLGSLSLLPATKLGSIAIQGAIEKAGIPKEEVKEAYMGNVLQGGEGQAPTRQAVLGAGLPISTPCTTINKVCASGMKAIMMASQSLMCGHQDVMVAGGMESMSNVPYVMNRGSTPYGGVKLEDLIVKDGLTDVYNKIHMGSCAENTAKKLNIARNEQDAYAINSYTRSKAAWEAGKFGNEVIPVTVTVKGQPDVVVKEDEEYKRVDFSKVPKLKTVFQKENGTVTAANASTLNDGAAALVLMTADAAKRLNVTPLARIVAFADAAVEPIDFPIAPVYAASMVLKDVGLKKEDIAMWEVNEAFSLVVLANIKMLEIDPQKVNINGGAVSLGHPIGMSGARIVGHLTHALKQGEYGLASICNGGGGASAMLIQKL
Experiment: Competitive isoTOP-ABPP, cell lysates
Format: binding
Settings: 500 μM, invitro, 231
experimental endpoint: isoTOP-ABPP ratio P24752_C119
One number for each entry.

Required: isoTOP-ABPP ratio P24752_C119, one value per compound below.
1. O=C(CCl)NCCc1c[nH]c2ccccc12 [compound 13]
2. C=CC(=O)N(c1ccccc1)c1ccc(Br)cc1 [compound 5]
3. Cn1cc(S(=O)(=O)N2CCOCC2)cc1C(=O)NC(=O)CCl [compound 11]
4. CNS(=O)(=O)C=Cc1ccc2c(ccn2Cc2ccccc2)c1 [compound 6]
5. O=C(CCl)N1CCN(S(=O)(=O)c2ccccc2F)CC1 [compound 10]
6. O=C(CCl)NC(=O)NC12CC3CC(CC(C3)C1)C2 [compound 12]

A:
1. 1.2
2. 1.8
3. 1.2
4. 1.1
5. 1.5
6. 1.0

Response field isoTOP-ABPP ratio P24752_C119 (ACAT1 C119 (P24752) (Homo sapiens, UniProt P24752)) for item C=CC(=O)N(Cc1cccnc1)c1ccc(Oc2ccccc2)c(C(F)(F)F)c1 [compound 15] : 1.0
